// provenance: ChEMBL document CHEMBL1201862

- Tested on: KM12
- test-description: NCI tumour cell line growth inhibition, 48 h
Calls of active or inactive are those of the source. Cut-off read from the data, not from the text of the source: active = GI50 up to about 1.1 µM and inactive = higher.
Response enum: active, inactive

A selection of reference data follows.
COc1cc(-c2ccc(Nc3ccccc3C(=O)O)c(OC)c2)ccc1Nc1ccccc1C(=O)O	inactive
CCCCC1(C)C=C/C(=C2/C(=O)O/C(=C\C(=O)O)C2=O)O1 (stereo not drawn)	inactive
C[Si](C)(c1ccccc1)C1CC(=O)CC(=O)C1	inactive
O=c1[nH]cc(F)c(=O)n1C1OC(CO)C(O)C1O (stereo not drawn)	inactive
COCn1c2ccc(OC(C)=O)cc2c2c(=O)oc(N(C)C)nc21	inactive
N#CCC1(c2ccc(Cl)cc2)NC(=O)c2ccccc21 (stereo not drawn)	inactive

Ask: Check the results log: what was the call for CN(C(=O)C12C3C4C5C3C1(C(=O)O)C5C42)C(C)(C)C (stereo not drawn) ?
Result: inactive

Ask: Tell me the assay call for `N#CC(C#N)=C1SCC(=O)CS1` please.
Result: inactive

Ask: Per the records of this test, what outcome belongs to `COC(=O)C1=C(OC)[C@H]2C#C/C=C\C#C[C@@H]3Nc4c(cc(O)c5c4C(=O)c4ccccc4C5=O)[C@]24O[C@@]34[C@H]1C` ?
Result: active

Ask: Field: outcome | Entry: `c1ccc(-c2cnc(-c3ccc(-c4ncc(-c5ccccc5)o4)cc3)o2)cc1`
Result: inactive

Ask: Record lookup: outcome of this test for `CCOc1ccc(/N=N/c2ccc3oc(=O)c(/C(C)=N/NC(=O)CC(=O)Nc4cccc(OC)c4)cc3c2)cc1` ?
Result: inactive

Ask: Outcome? `COc1ccccc1/C=C1\S/C(=N/Nc2nc(C)c(C(C)=O)s2)NC1=O`
Result: inactive

Ask: Hi, sorry to bother you, what did the test record for CCN1CN(c2ccccc2)C2(CCN(CC3COc4ccccc4O3)CC2)C1=O (stereo not drawn) ?
Result: inactive

----------
- System: SNB-75
- test-description: NCI tumour cell line growth inhibition, 48 h
Activity calls are given as the source filed them. No stated cut-off is given here; in the data, active = GI50 up to about 1.1 µM and inactive = higher. Starred links: 1 amine or outer side, 2 acyl side, 3 side chain; linkers in the order of their positions; H or OH if unused. Positions of bridges follow the written chain, without caps; N, C: chain ends. Non-standard residues stand in square brackets, D forms with d. Residues, ends and D or L forms follow the SMILES beside them. *: point of attachment. X40 = CC[C@H](C)[C@@H](N[*:1])[C@@H](O)CC(=O)[*:2]; NMeY = CN[C@@H](Cc1ccc(O)cc1)C(=O)O; dNMeL = CN[C@H](CC(C)C)C(=O)O; Hiv = CC(C)[C@H](O)C(=O)O; Pyruvoyl = CC(=O)C(=O)*
// one of active, inactive, no free text

O=c1oc2ccccc2cc1-c1cn2c(n1)sc1ccccc12	inactive
O=[N+]([O-])c1cccc(S(=O)(=O)N/N=C/c2cc(I)cc([N+](=O)[O-])c2O)c1	inactive
O=C1c2cccc(O)c2C(=O)c2c(OC3OC(CO)C(O)C(O)C3O)cccc21 (configuration not stated)	inactive
c1csc(-c2ccc(-c3ccsc3)s2)c1	inactive

Ask: // outcome(item) with item = `COc1cc2c(c(OC)c1OC)-c1ccc(SC)cc1[C@H](OC(=O)c1ccccc1)CC2`
Result: inactive

Ask: Call for entry `C=C(C)[C@@H]1C[C@H]2O[C@](O)(C(=C)CC(=O)/C=C(/C)C[C@@H]3OC(=O)[C@]24O[C@@H]34)[C@H]1O` :
Result: inactive

Ask: Would you mind telling me which call this test gave CC[C@H](C)[C@H]1NC(=O)[C@@H](NC(=O)[C@@H](CC(C)C)N(C)C(=O)[C@@H]2CCCN2C(=O)C(C)=O)[C@@H](C)OC(=O)[C@H](Cc2ccc(OC)cc2)N(C)C(=O)[C@@H]2CCCN2C(=O)[C@H](CC(C)C)NC(=O)[C@H](C(C)C)OC(=O)C[C@@H]1O (Pyruvoyl-P[dNMeL]T[X40][Hiv]LP[NMeY](Me); ester 3-C) ?
Result: active

Ask: Tell me the assay call for Cc1ccc(S(=O)(=O)C2CC2(Cl)Cl)cc1 (configuration not stated) please.
Result: inactive

Ask: Hi, do you know how `O=C1c2ccccc2CC12CCC1(CC2)OCCO1` came out in this test?
Result: inactive

Ask: What did this assay record as the result for CCOP(=O)(O)CC1OC(CO)C(O)C1O (configuration not stated) ?
Result: inactive

Ask: Which result was noted for this compound in the test: `COC(=O)CCC(=O)CC(=O)C(=O)Nc1c(Cl)cc([N+](=O)[O-])cc1Cl`
Result: inactive

Ask: Record lookup: outcome of this test for `COc1cccc2c(=O)oc(-c3ccc(C(C)(C)C)cc3)nc12` ?
Result: inactive

Ask: What is the recorded call for this compound in the test? CCCCCCCCCCCCCCCCCCOCC(CCP(=O)(CP(=O)(O)O)Oc1ccccc1)OCCCCCCCCCCCCCCCCCC (configuration not stated)
Result: inactive

Ask: How was C/C(=N/Nc1ccc([N+](=O)[O-])cc1[N+](=O)[O-])C(CC(C(=O)Nc1ccccc1C)/C(C)=N\Nc1ccc([N+](=O)[O-])cc1[N+](=O)[O-])C(=O)Nc1ccccc1C (configuration not stated) classified in this test?
Result: inactive
